# Test system: OCI-AML2
# test-summary: cell viability relative to vehicle control; higher = less cytotoxic;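 note: after 48 h exposure read by CellTiter-Glo luminescence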
# condition-parameters: 10 µM; SRSF2 genotype: P95H/wt
The following compounds are shown together with reported cell viability values.
Give a bare numeral; the unit % is implied.

Example results:
CCc1cccc2c3c([nH]c12)C(CC)(CC(=O)O)OCC3 (centres undefined); 86.8
Cc1cccc(-c2[nH]c(CNc3ccccc3F)nc2-c2ccc3ncnn3c2)n1; 111
C=C1CC[C@H]2C(=C)CC[C@H]3C(=C)C(=O)O[C@@H]3[C@@H]12 [Dehydrocostus Lactone]; 3.84
C[C@@H](O[C@H]1OCCN(Cc2n[nH]c(=O)[nH]2)[C@H]1c1ccc(F)cc1)c1cc(C(F)(F)F)cc(C(F)(F)F)c1 [Aprepitant (MK-0869)]; 45.8
Cc1nc(NC(=O)N2CCC[C@H]2C(N)=O)sc1-c1ccnc(C(C)(C)C(F)(F)F)c1; 32.2

Ask: cell viability lookup needed for O=C(CCCCCCC(=O)N/N=C/c1ccc(N(c2ccccc2)c2ccccc2)cc1)NO , thanks.
Reply: 0.64

###

# Tested on: MARIMO
# test-summary: cell viability relative to vehicle control; higher = less cytotoxic
# condition-parameters: 10 µM; SRSF2 genotype: SRSF2 P95H/wt
parameter: cell viability (%)
Give the value, in units of %, as a plain number.

Example results:
CC[C@H](C)n1cc(C)c2c(C(=O)NCc3c(C)cc(C)[nH]c3=O)cc(-c3ccc(N4CCNCC4)nc3)cc21; 80.9
O=C(O)Cc1ccccc1Nc1c(Cl)cccc1Cl [Diclofenac Potassium]; 106

Ask: Given the compound CCCCCCCCCCCCCCCCCCCCCC(=O)O , what is its reported cell viability?
Reply: 97.7

Ask: Which cell viability is reported for this compound? CCCCCCCCCCCCCCCC(=O)O
Reply: 96.4

Ask: Would you kindly share the measured cell viability for CC(C)=CCC/C(C)=C/CC/C(C)=C/CCC(=O)OC/C=C(\C)CCC=C(C)C [Gefarnate] ?
Reply: 99.7

Ask: Recorded cell viability of C[C@@H]1COC(Nc2ccc3ncnc(Nc4ccc(OCc5nccs5)c(Cl)c4)c3c2)=N1 , please.
Reply: 89.2

Ask: Could you share which cell viability value was measured for COc1cc2c(Oc3ccc4[nH]c(C)cc4c3F)ncnc2cc1OCCCN1CCCC1 ?
Reply: 55.1

Ask: Record request: cell viability value, item CO[C@H]1/C=C/O[C@@]2(C)Oc3c(C)c(O)c4c(O)c(c(/C=N/N5CCN(C)CC5)c(O)c4c3C2=O)NC(=O)/C(C)=C\C=C\[C@H](C)[C@H](O)[C@@H](C)[C@@H](O)[C@@H](C)[C@H](OC(C)=O)[C@@H]1C
Reply: 99.9

Ask: Param item = CC1(C)CC[C@]2(C(=O)O)CC[C@]3(C)C(=CC[C@@H]4[C@@]5(C)CC[C@H](O)[C@@](C)(CO)[C@@H]5CC[C@]43C)[C@@H]2C1 ; retrieve measured cell viability.
Reply: 98.4

###

# reported cell viability; entries follow
# Tested on: OCI-AML2
# test-summary: cell viability relative to vehicle control; higher = less cytotoxic
# condition-parameters: 10 µM; SRSF2 genotype: P95H/wt
Structures can show the parent of a compound that is named as a salt.
Value expressed in %; do not type the unit.

CC[C@@]1(O)C(=O)OCc2c1cc1n(c2=O)Cc2cc3cc(O)ccc3nc2-1 [10-Hydroxycamptothecin]; 0.54
CCN(CCO)CCCOc1ccc2c(Nc3cc(CC(=O)Nc4cccc(F)c4)[nH]n3)ncnc2c1; 29.1
O=C(O)CCc1ccc(NCc2cccc(Oc3ccccc3)c2)cc1; 91
COC(=O)C[C@](O)(CCCC(C)(C)O)C(=O)O[C@@H]1C(OC)=C[C@]23CCCN2CCc2cc4c(cc2[C@H]13)OCO4; 5.52
CNC(=O)[C@H](Cc1ccccc1)NC(=O)[C@H](CC(C)C)[C@H](CSc1cccs1)C(=O)NO; 115

Ask: Name the reported cell viability value associated with the compound Cc1cn([C@H]2C=C[C@@H](CO)O2)c(=O)[nH]c1=O
Reply: 97.2

Ask: Query: cell viability; subject: COc1cc(OC)c(C(=O)CCCN2CCCC2)c(OC)c1 [Buflomedil HCl]
Reply: 113

Ask: If you can, please state the reported cell viability value of O=C1NS(=O)(=O)c2ccccc21 .
Reply: 89.5

Ask: Could you share which cell viability value was measured for COC(=O)N(C)c1c(N)nc(-c2nn(Cc3ccccc3F)c3ncccc23)nc1N ?
Reply: 96.3

Ask: Could you share which cell viability value was measured for C[C@H]1COC2(CCN(c3nc(=O)c4cc(C(F)(F)F)cc([N+](=O)[O-])c4s3)CC2)O1 (racemic) [BTZ043 racemate] ?
Reply: 91.7

###

# Test system: MOLM14
# test-summary: cell viability relative to vehicle control; higher = less cytotoxic
# condition-parameters: 10 µM; SRSF2 genotype: SRSF2 wt/wt
Counter-ions that a name gives are not always drawn.
Measured cell viability by item
Unit % implied. Number only.

// worked examples, cell viability included
CC(=O)O/N=C1/C(c2c(O)[nH]c3cc(Br)ccc23)=Nc2ccccc21 [BIO-acetoxime]; 24.4
COc1cc(-c2oc3cc(O)cc(O)c3c(=O)c2O)ccc1O [Isorhamnetin]; 79.4
CCCC(=O)NCCc1csc(-c2ccc(Cl)cc2)n1 [Azoramide]; 99.5
FC(F)c1nc2ccccc2n1-c1nc(N2CCOCC2)nc(N2CCOCC2)n1; 32.9
CC(C)(C)c1cnc(CSc2cnc(NC(=O)C3CCNCC3)s2)o1; 0.63
CCC(=O)OCC(=O)[C@@]1(OC(=O)CC)[C@@H](C)C[C@H]2[C@@H]3CCC4=CC(=O)C=C[C@]4(C)[C@@]3(Cl)[C@@H](O)C[C@@]21C [Beclomethasone dipropionate]; 93

Ask: Find the recorded cell viability belonging to CNCc1cc(-c2ccccc2F)n(S(=O)(=O)c2cccnc2)c1 [Vonoprazan Fumarate (TAK-438)] and report it.
Reply: 91.3

Ask: Query (compound): COc1ccc(-c2oc3cc(O)cc(O)c3c(=O)c2O)cc1 [kaempferide] ; field requested: cell viability
Reply: 98.2

Ask: Item CC(C)c1ccccc1Cc1cc(C(=O)Nc2ccc(S(=O)(=O)c3ccccc3C(C)(C)C)cc2)c(O)c(O)c1O has what recorded cell viability?
Reply: 1.48

###

# Tested on: MOLM14
# test-summary: cell viability relative to vehicle control; higher = less cytotoxic
# condition-parameters: 10 µM; SRSF2 genotype: SRSF2 wt/wt
Counter-ions that a name gives are not always drawn.
Let's look at some compounds and their measured cell viability.
Expressed in %, but write only the number.

Look over these answered cases.
O=C(CCN1CCN(C(=O)OCc2cc(Cl)cc(Cl)c2)CC1)c1ccc2[nH]c(=O)oc2c1; 98.8
CCn1c(=O)c2c(nc(/C=C/c3ccc(OC)c(OC)c3)n2C)n(CC)c1=O; 97.6
CCn1c(-c2nonc2N)nc2c(C#CC(C)(C)O)ncc(OC[C@H]3CCCNC3)c21; 47.1

Ask: What value of cell viability on MOLM14 does CC(=O)OCC(=O)[C@H]1CC[C@H]2[C@@H]3CCC4=CC(=O)CC[C@]4(C)[C@H]3CC[C@]12C [Deoxycorticosterone acetate] have?
Reply: 96.2

Ask: Lookup: cell viability / MOLM14 / O=C(C=Cc1cccnc1)c1ccncc1
Reply: 18.4

Ask: Find cell viability (MOLM14) for the entry O=C(Nc1ccc(Cl)cc1)C1CCCN(C(=O)c2cccc(-c3ccco3)c2)C1 (stereo not drawn)
Reply: 77.1

Ask: Query for MOLM14: what cell viability does the record show for O=C1CN2Cc3c(ccc(Cl)c3Cl)N=C2N1 [Anagrelide hydrochloride] ?
Reply: 93.4

Ask: cell viability of COC(=O)C1=CC[C@@]23CC[C@@H]([C@@](C)(/C=C/C=C(\C)C(=O)O)OC2=O)[C@@]3(OC(C)=O)CC1 on MOLM14?
Reply: 3.39

###

# System: OCI-AML2
# test-summary: cell viability relative to vehicle control; higher = less cytotoxic
# condition-parameters: 10 µM; SRSF2 genotype: P95H/wt
A collection of compounds and their measured cell viability
Lab book: enter the figure in %, no units written.

C[C@@H](OC[C@@]1(c2ccccc2)CC[C@]2(CCC(=O)N2)CN1)c1cc(C(F)(F)F)cc(C(F)(F)F)c1; 45.2
COc1ccc(-c2nc(-c3cc(C(F)(F)F)cc(C(F)(F)F)c3)n(Cc3ccc(C(N)=O)cc3)c2-c2ccc(OC)cc2)cc1; 69.4
C[C@H]1c2cccc(O)c2C(O)=C2C(=O)[C@]3(O)C(O)=C(C(N)=O)C(=O)[C@@H](N(C)C)[C@@H]3[C@@H](O)[C@@H]21; 88.2
Cc1ccc(Nc2ncc3c(n2)N(C)C(=O)N(c2cc(NC(=O)c4cccc(C(F)(F)F)c4)ccc2C)C3)cn1; 40.8
C[C@H]1[C@@H](O)O[C@@H]2O[C@@]3(C)CC[C@H]4[C@H](C)CC[C@@H]1[C@@]24OO3 [Dihydroartemisinin (DHA)]; 0.58

Ask: Sample CCOC(=O)CCNc1cc(N2CCc3ccccc3CC2)nc(-c2ccccn2)n1 — what was its cell viability?
Reply: 28.8

Ask: So what does the record say about cell viability for O=C(Cn1cnnn1)N[C@@H]1C(=O)N2C(C(=O)O)=C(CSc3nncs3)CS[C@H]12 [Ceftezole sodium] ?
Reply: 123

Ask: Recorded cell viability for CCOC(=O)[C@@H](N)Cc1ccc(-c2cc(O[C@H](c3ccc(Cl)cc3-n3ccc(C)n3)C(F)(F)F)nc(N)n2)cc1 [LX1606 hippurate] , please?
Reply: 4.73

Ask: Form field: reported cell viability of CNc1cc(-c2cccc(Cl)c2Cl)nc(N)n1
Reply: 6

Ask: So what's the measured cell viability for this one? CC1CCc2cc(F)cc3c(=O)c(C(=O)O)cn1c23 (stereo not drawn)
Reply: 96.3

Ask: So what does the record say about cell viability for OC[C@H]1O[C@@](CO)(O[C@H]2O[C@H](CO)[C@@H](O)[C@H](O)[C@H]2O)[C@@H](O[C@H]2O[C@H](CO)[C@@H](O)[C@H](O)[C@H]2O)[C@@H]1O [Melezitose] ?
Reply: 96.3

Ask: Param item = CCNC(=O)c1[nH]nc(-c2cc(Cl)c(O)cc2O)c1-c1ccc(OC)cc1 ; retrieve measured cell viability.
Reply: 12.6

Ask: What does the data say about its cell viability? Entry: COc1ccc(C(=O)CC2(O)C(=O)Nc3c(Cl)ccc(Cl)c32)cc1 (stereo not drawn)
Reply: 4.82

Ask: Reported cell viability for CC(=O)OCC(=O)[C@@]1(O)CC[C@H]2[C@@H]3CCC4=CC(=O)CC[C@]4(C)[C@H]3C(=O)C[C@@]21C [Cortisone acetate (Cortone)] : what is it?
Reply: 117

Ask: GET /values?readout=cell viability&item= COc1ccc(C2CNC(=O)C2)cc1OC1CCCC1 (stereo not drawn) [Rolipram]
Reply: 108
